Data provenance is patent US10131652B2.

Tested on: giant foxtail (Setaria faberii)
Assay: Test B pre-/postemergence plant response
Assay type: in vivo
Settings: Preemergence, 500 g ai/ha; 0 to 100 scale where 0 is no effect and 100 is complete control
Answer each item with its documented Plant response rating, Foxtail, Giant.
Answers are plain numbers.

For each of the compounds below, note its Plant response rating, Foxtail, Giant.
1. Cn1nc(C(F)(F)F)cc1-c1c(C#N)cccc1Oc1ncc(Cl)cn1
2. Cn1nnnc1-c1ccccc1Oc1ncc(Cl)cn1
3. Cn1nc(C(F)(F)F)cc1-c1ccccc1Oc1ncc(Cl)cn1
4. N#Cc1cccc(Oc2ncc(Cl)cn2)c1-c1cc(C(F)(F)F)on1
5. CC(C)n1ncnc1-c1ccccc1Oc1ncc(Cl)cn1

1: 100; 2: 30; 3: 10; 4: 100; 5: 0

Identify measured Plant response rating, Foxtail, Giant corresponding to `Cc1cc(-c2ccccc2Oc2ncc(Cl)cn2)on1`
100

###

Test system: wild poinsettia (Euphorbia heterophylla)
Assay: Test F pre-/postemergence plant response
Format: in vivo
Settings: 125 g ai/ha Postemergence; scale 0 to 100
Answer each item with its documented Plant response rating, Poinsettia, Wild.
Numbers only.

Example entries begin here.
INSERT INTO measurements (mol_smiles, property_measured, observed_value) VALUES
  ('CC(F)(F)c1cc(-c2ccccc2Oc2ncc(Br)cn2)no1', 'Plant response rating, Poinsettia, Wild', 70),
  ('FC(F)c1cc(-c2ccccc2Oc2ncc(Br)cn2)on1', 'Plant response rating, Poinsettia, Wild', 60),
  ('Cc1cc(-c2ccccc2Oc2ncc(Cl)cn2)on1', 'Plant response rating, Poinsettia, Wild', 60);

Please find the next compound below.
Give Plant response rating, Poinsettia, Wild for `FC(F)c1cc(-c2c(Cl)cccc2Oc2ncc(Cl)cn2)no1` tested on wild poinsettia (Euphorbia heterophylla).
35

###

Tested on: ducksalad (Heteranthera limosa)
Assay: Test C flooded paddy test plant response
Format: in vivo
Conditions: Flood, 250 g ai/ha; scale of 0 to 100 where 0 is no effect and 100 is complete control; 13 to 15 days
Experimental: Plant species in the flooded paddy test selected from rice (Oryza sativa), small-flower umbrella sedge (Cyperus difformis), ducksalad (Heteranthera limosa), and bamyardgrass (Echinochloa crus-galli) were grown to the 2-leaf stage for testing. […] Treated plants and controls were maintained in a greenhouse for 13 to 15 days, after which time all species were compared to controls and visually evaluated. […]
Property measured: Ducksalad plant response rating
Numbers only.

Example entries begin here.
INSERT INTO measurements (compound, observed_value) VALUES
  ('FC(F)(F)c1ccc(-c2ccccc2Oc2ncc(Cl)cn2)cc1 [Compound 43]', 0),
  ('Cn1ccnc1-c1ccccc1Oc1ncc(Br)cn1 [Compound 152]', 0),
  ('FC(F)(F)c1ccc(-c2ccccc2Oc2ncc(Br)cn2)nc1 [Compound 28]', 0),
  ('FC(F)(F)COc1cc(-c2ccccc2Oc2ncc(Cl)cn2)on1 [Compound 176]', 75),
  ('Fc1ccc(Oc2ncc(Cl)cn2)c(-c2cc(C(F)F)on2)c1F [Compound 113]', 95),
  ('Cn1nc(C(F)(F)F)cc1-c1ccccc1Oc1ncc(Br)cn1 [Compound 30]', 0),
  ('FC(F)c1cc(-c2ccccc2Oc2ncc(Cl)cn2)ncn1 [Compound 184]', 0),
  ('Fc1cccc(Oc2ncc(Cl)cn2)c1-c1cnccn1 [Compound 165]', 0);

For each of the compounds below, note its Ducksalad plant response rating.
1. Cc1cc(-c2ccccc2Oc2ncc(Cl)cn2)sn1 [Compound 171]
2. FC(F)(F)c1cc(-c2ccccc2Oc2ncc(Cl)cn2)ncn1 [Compound 54]

1. 0
2. 60
